# System: HEK-293T
# Assay Remarks: Incucyte cell viability with HEK293T; note: unitless GR value; below 1 slowed growth and below 0 cell loss
# Assay type: toxicity, cell-based
# Condition Context: human, 0 h, 10 µM, compound concentration 10 uM, replicate number 1
Rule: Growth Rate below 0.04 gives Satisfied. Equal to or above 0.04 gives Not satisfied.

>>> assigned_label("COc1ccc(-n2c(C)c([N+](=O)[O-])c3ccc(O)cc32)cc1")
"Not satisfied"
>>> assigned_label("NC(=O)C1CCCc2c1[nH]c1ccc(Cl)cc21 (stereo unspecified)")
"Not satisfied"
>>> assigned_label("O=C(O)c1ccc(-c2c[nH]c3ncc(-c4ccccc4)cc23)cc1C1CCCC1")
"Not satisfied"
>>> assigned_label("O=C1NC(NC23CC4CC(CC(C4)C2)C3)=N/C1=C\\c1ccc2ncsc2c1")
"Satisfied"
>>> assigned_label("CO[C@H]1C[C@@H]2CC[C@@H](C)[C@@](O)(O2)C(=O)C(=O)N2CCCC[C@H]2C(=O)O[C@H]([C@H](C)C[C@@H]2CC[C@@H](O)[C@H](OC)C2)CC(=O)[C@H](C)/C=C(\\C)[C@@H](O)[C@@H](OC)C(=O)[C@H](C)C[C@H](C)/C=C/C=C/C=C/1C")
"Satisfied"
>>> assigned_label("CN[C@@H](C)C(=O)N[C@H]1CCCC[C@H]2CC[C@@H](C(=O)N[C@@H](c3ccccc3)c3cn(CCCCc4ccc(CCCCn5cc([C@@H](NC(=O)[C@@H]6CC[C@@H]7CCCC[C@H](NC(=O)[C@H](C)NC)C(=O)N76)c6ccccc6)nn5)cc4)nn3)N2C1=O")
"Not satisfied"
>>> assigned_label("CN[C@@H](C)C(=O)N[C@H]1CN(C(=O)CC(C)C)CC[C@H]2CC[C@@H](C(=O)NC(c3ccccc3)c3ccccc3)N2C1=O")
"Not satisfied"
>>> assigned_label("CC(=O)O.NCCCc1c(C(=O)O)[nH]c2ccc(C(=O)Nc3ccccc3)cc12")
"Not satisfied"
>>> assigned_label("CC(C)(C)OC(=O)CN1C(=O)c2c(OCC(=O)O)cccc2Oc2ccc(C(F)(F)F)cc21")
"Not satisfied"
>>> assigned_label("Fc1ccc(Cl)cc1-c1nc(Nc2ccncc2)c2nccnc2n1")
"Satisfied"
>>> assigned_label("O=c1ccc2c(OCCCCOc3ccccc3)c3ccoc3cc2o1")
"Not satisfied"
>>> assigned_label("Cc1c(N2CCCC2)nc2ccc(Br)cc2c1C(=O)NC[C@H](CCC(=O)O)c1ccccc1Cl")
"Satisfied"
>>> assigned_label("CC1=NC(C=C2C(=O)Nc3ccc(F)cc32)=C(C)C1C(=O)NCC(O)CN1CCOCC1 (stereo unspecified)")
"Not satisfied"
>>> assigned_label("CC(=O)Nc1c(F)cc(C(=O)N[C@H]2CC[C@H](O)CC2)cc1O[C@@H](C)c1ccccc1")
"Not satisfied"
>>> assigned_label("NC(=O)c1cc(-c2ccnc(NC3CCCCC3)c2)nc(N2CCNCC2)c1")
"Satisfied"
